- measurement-protocol: in vitro
- Format: cell-based
- measurement-parameters: human; Hep G 2.2.15 cells, MTT, day 3 post-dosing

- compound: "C=C1[C@H](CO[P@](=O)(N[C@@H](C)C(=O)OC(C)C)Oc2ccc3c(c2)OCO3)[C@@H](O)C[C@@H]1n1cnc2c(=O)[nH]c(N)nc21 [Compound I38-a]"
  operator-symbol: "="
  CC50 / µM: 139
- compound: "COc1nc(N)nc2c1ncn2[C@@H]1O[C@H](COP(=O)(N[C@@H](C)C(=O)OC(C)C)Oc2ccc3c(c2)OCO3)[C@@H](O)[C@@]1(C)F (some centres unmarked) [Compound I34]"
  operator-symbol: ">"
  CC50 / µM: 200
- compound: "COc1nc(N)nc2c1ncn2[C@@H]1O[C@H](CO[P@@](=O)(N[C@@H](C)C(=O)OC2CCCCC2)Oc2ccc3c(c2)OCO3)[C@@H](O)[C@@]1(C)F [Compound I35]"
  operator-symbol: ">"
  CC50 / µM: 200
- compound: "CCOC(=O)[C@H](C)N[P@](=O)(OC[C@H]1O[C@@H](n2ccc(=O)[nH]c2=O)[C@](C)(F)[C@@H]1O)Oc1ccc2c(c1)OCO2 [Compound I30]"
  operator-symbol: ">"
  CC50 / µM: 200
- compound: "C=C1[C@H](CO[P@@](=O)(N[C@@H](C)C(=O)OC(C)C)Oc2ccccc2)[C@@H](O)C[C@@H]1n1cnc2c(=O)[nH]c(N)nc21 [i-5, reference compound]"
  operator-symbol: "="
  CC50 / µM: 193
